Parameter GI50: see the listing below.
Tested on: LOX IMVI melanoma
Assay comment: NCI tumour cell line growth inhibition, 48 h

Molecule	GI50
CC1CC2(C)CC(=O)C1C1C(=O)N(CCN3CCOCC3)C(=O)C12 (stereo unspecified)	> 100000 nM
O=S1(=O)C=C(c2ccccc2)C(c2ccccc2)=C1	1690 nM
O=C(CN1CCN(c2ccccn2)CC1)Nc1ccc(Cl)cc1C(=O)c1ccccc1Cl	41600 nM
CCC(=O)Oc1ccc(/C=N/NC(N)=S)nc1	2910 nM
CN1C(=O)C(C)(C)Oc2c(-c3cn(C)c(=O)c4[nH]ccc34)cc(S(C)(=O)=O)cc21	462 nM
CN1CCN(Cc2ccc(NC(=O)c3cncc(C#Cc4ncc5ccccn45)c3)cc2C(F)(F)F)CC1	1270 nM
